system_tested: Ghrelin/GHRP/GHS Receptor (Rattus norvegicus, UniProt O08725)
Sequence (O08725 whole entry): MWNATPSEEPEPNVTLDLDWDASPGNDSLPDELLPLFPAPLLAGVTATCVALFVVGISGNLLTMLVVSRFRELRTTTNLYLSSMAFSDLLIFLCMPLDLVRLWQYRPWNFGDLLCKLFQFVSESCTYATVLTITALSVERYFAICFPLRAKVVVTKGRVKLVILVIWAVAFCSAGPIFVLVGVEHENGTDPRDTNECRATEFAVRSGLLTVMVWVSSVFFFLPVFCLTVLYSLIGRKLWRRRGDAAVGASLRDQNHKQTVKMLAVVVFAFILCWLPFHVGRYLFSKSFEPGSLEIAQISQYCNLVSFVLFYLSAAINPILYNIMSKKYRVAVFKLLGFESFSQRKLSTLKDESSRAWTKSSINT
assay_name: GH release from cell culture of pituitary cells
Format: cell-based
Design: After dispersion, the cells were collected by centrifugation, wash with DMEM and placed into culture well; endogenous in cells; host or cells: dispersed primary rat pituitary cells, 4 days in culture
condition_context: Table 10; compound 10 μg/ml + stimulator 1 ng/ml
Listed here: items and their measured Stimulated GH release (P + S).
Please respond with the number in ng/mL and leave the unit unwritten.

Worked cases, answers included:
molecule | system_tested | unit_string | reported
CC(C)(N)C(=O)N[C@H](COCc1ccccc1)C(=O)N1CCN(c2ccccc2)CC1 [αAibDSer(BZL)-N′-phenyl-N-piperazinamide] | Ghrelin/GHRP/GHS Receptor (Rattus norvegicus, UniProt O08725) | ng/mL | 878
N[C@H](COCc1ccccc1)C(=O)N1CCN(c2ccccc2)CC1 [6-D Ser(BZL)-N′-phenyl-N-piperazinamide, D Ser(BZL)-N′-phenyl-N-piperazinamide] | Ghrelin/GHRP/GHS Receptor (Rattus norvegicus, UniProt O08725) | ng/mL | 719
C=C(C)CON=C(c1ccccc1)c1ccccc1 | Ghrelin/GHRP/GHS Receptor (Rattus norvegicus, UniProt O08725) | ng/mL | 1281

Kindly review the next molecule as well.
Q: What value of measured Stimulated GH release (P + S) is listed for N[C@H](Cc1c[nH]c2ccccc12)C(=O)N1CCC(c2ccccc2)CC1 [1-DTrp-4-phenylpiperdinamide, DTrp-4-phenylpiperdinamide] ?
A: 344

###

system_tested: Ghrelin/GHRP/GHS Receptor (Rattus norvegicus, UniProt O08725)
assay_name: In vivo GH release in rat after i.v. peptide (serum GH by RIA)
condition_context: Table 3; peptide alone 10 μg i.v.
Where no end group is shown, it is not given here. [ ]: non-standard residue; d: D form. d2Nal = N[C@H](Cc1ccc2ccccc2c1)C(=O)O
assay_readout: Unstimulated Basal GH release (ng/mL)
Please respond with the number in ng/mL and leave the unit unwritten.

substance | reported
DcyclohexylAla-Ala-Trp-DPhe-NH2 [5-DcyclohexylAla-Ala-Trp-DPhe-NH2] | 237

Q: What value of measured Unstimulated Basal GH release is listed for DAla-DβNal-Ala-Ala-DAla-Lys-NH2 [6-DAla-DβNal-Ala-Ala-DAla-Lys-NH2] ?
A: 178

Q: What value of measured Unstimulated Basal GH release is listed for DcyclohexylAla-Ala-Phe-DTrp-Lys-NH2 [3-DcyclohexylAla-Ala-Phe-DTrp-Lys-NH2] ?
A: 199

Q: What value of measured Unstimulated Basal GH release is listed for [d2Nal]AW[dF]L-NH2 [7-DβNal-Ala-Trp-DPhe-Leu-NH2] ?
A: 277

Q: What value of measured Unstimulated Basal GH release is listed for H[dW]FW[dF]K-NH2 [8-His-DTrp-Phe-Trp-DPhe-Lys-NH2] ?
A: 197

###

system_tested: Ghrelin/GHRP/GHS Receptor (Rattus norvegicus, UniProt O08725)
assay_name: In vivo GH release in rat after i.v. peptide (serum GH by RIA)
condition_context: Table 3; peptide alone 1 μg i.v.
Where no end group is shown, it is not given here. [ ]: non-standard residue; d: D form. d2Nal = N[C@H](Cc1ccc2ccccc2c1)C(=O)O
Listed here: items and their measured Unstimulated Basal GH release.

Worked cases, answers included:
substance | Unstimulated Basal GH release
DcyclohexylAla-Ala-Phe-DTrp-Lys-NH2 [3-DcyclohexylAla-Ala-Phe-DTrp-Lys-NH2] | 199 ± 63 ng/mL
DAla-DcyclohexylAla-Ala-Phe-DPhe-Nle-NH2 | 435 ± 152 ng/mL
H[dW]FW[dF]K-NH2 [8-His-DTrp-Phe-Trp-DPhe-Lys-NH2] | 67 ± 14 ng/mL
[dA][d2Nal][dA][dW]FK-NH2 [9-DAla-DβNal-DAla-DTrp-Phe-Lys-NH2] | 184 ± 55 ng/mL

Kindly review the next substance as well.
Q: What value of measured Unstimulated Basal GH release is listed for [d2Nal]AW[dF]A-NH2 [1-DβNal-Ala-Trp-DPhe-Ala-NH2] ?
A: 623 ± 60 ng/mL

###

system_tested: Ghrelin/GHRP/GHS Receptor (Rattus norvegicus)
assay_name: GH release from cell culture of pituitary cells
Type: cell-based
Design: After dispersion, the cells were collected by centrifugation, wash with DMEM and placed into culture well; endogenous in cells; host or cells: dispersed primary rat pituitary cells, 4 days in culture
condition_context: Table 8; peptide 30 μg/ml
Where no end group is shown, it is not given here. [ ]: non-standard residue; d: D form.
assay_readout: Unstimulated Basal GH release (ng/mL)
Please respond with the number in ng/mL and leave the unit unwritten.

substance | unit_string | Unstimulated Basal GH release
Arg-DTrp-Leu-Tyr-Trp-Pro(cyclic Arg-Pro) (WLYWP; HELM PEPTIDE1{R.[dW].L.Y.W.P}$PEPTIDE1,PEPTIDE1,1:R1-6:R2$$$V2.0; SMILES CC(C)C[C@@H]1NC(=O)[C@@H](Cc2c[nH]c3ccccc23)NC(=O)[C@H](CCCNC(=N)N)NC(=O)[C@@H]2CCCN2C(=O)[C@H](Cc2c[nH]c3ccccc23)NC(=O)[C@H](Cc2ccc(O)cc2)NC1=O) | ng/mL | 601

Kindly review the next substance as well.
Q: What value of measured Unstimulated Basal GH release is listed for [dF]AF[dF]K-NH2 [7-DPhe-Ala-Phe-DPhe-Lys-NH2] ?
A: 276

###

system_tested: Ghrelin/GHRP/GHS Receptor (Rattus norvegicus)
assay_name: GH release from cell culture of pituitary cells
Type: cell-based
Set-up: After dispersion, the cells were collected by centrifugation, wash with DMEM and placed into culture well; endogenous in cells; host or cells: dispersed primary rat pituitary cells, 4 days in culture
condition_context: Table 8; peptide 3 μg/ml
Where no end group is shown, it is not given here. [ ]: non-standard residue; d: D form.
Listed here: items and their measured Unstimulated Basal GH release.
Don't forget the unit after the value.

Worked cases, answers included:
substance | system_tested | Unstimulated Basal GH release
DPal-Trp-DPhe-Phe-Met-NH2 [14-DPal-Trp-DPhe-Phe-Met-NH2] | Ghrelin/GHRP/GHS Receptor (Rattus norvegicus) | 1105 ± 18 ng/mL
[dF]W[dF]FM-NH2 [13-DPhe-Trp-DPhe-Phe-Met-NH2] | Ghrelin/GHRP/GHS Receptor (Rattus norvegicus) | 1146 ± 34 ng/mL
DPhe-Ala-Phe-DPal-NH2 [6-DPhe-Ala-Phe-DPal-NH2] | Ghrelin/GHRP/GHS Receptor (Rattus norvegicus) | 170 ± 19 ng/mL
DPal-Phe-DTrp-Phe-Met-NH2 [12-DPal-Phe-DTrp-Phe-Met-NH2] | Ghrelin/GHRP/GHS Receptor (Rattus norvegicus) | 1081 ± 50 ng/mL
Arg-DTrp-Leu-Tyr-Trp-Pro(cyclic Arg-Pro) (WLYWP; HELM PEPTIDE1{R.[dW].L.Y.W.P}$PEPTIDE1,PEPTIDE1,1:R1-6:R2$$$V2.0; SMILES CC(C)C[C@@H]1NC(=O)[C@@H](Cc2c[nH]c3ccccc23)NC(=O)[C@H](CCCNC(=N)N)NC(=O)[C@@H]2CCCN2C(=O)[C@H](Cc2c[nH]c3ccccc23)NC(=O)[C@H](Cc2ccc(O)cc2)NC1=O) | Ghrelin/GHRP/GHS Receptor (Rattus norvegicus) | 1480 ± 19 ng/mL

Kindly review the next substance as well.
Q: What value of measured Unstimulated Basal GH release is listed for "DAla-DcyclohexylAla-Ala-Ala-Phe-DPhe-Nle-NH2" ?
A: 177 ± 44 ng/mL

###

Listed here: items and their measured Unstimulated GH release.
system_tested: Ghrelin/GHRP/GHS Receptor (Rattus norvegicus, UniProt O08725)
assay_name: GH release from cell culture of pituitary cells
Assay type: cell-based
Set-up: After dispersion, the cells were collected by centrifugation, wash with DMEM and placed into culture well; endogenous in cells; host or cells: dispersed primary rat pituitary cells, 4 days in culture
condition_context: Table 10; compound alone 10 μg/ml
Please respond with the number in ng/mL and leave the unit unwritten.

compound | reported
N[C@H](COCc1ccccc1)C(=O)N1CCN(c2ccccc2)CC1 [6-D Ser(BZL)-N′-phenyl-N-piperazinamide, D Ser(BZL)-N′-phenyl-N-piperazinamide] | 585
CC(C)(N)C(=O)N[C@H](COCc1ccccc1)C(=O)N1CCN(c2ccccc2)CC1 [αAibDSer(BZL)-N′-phenyl-N-piperazinamide] | 777
N[C@H](Cc1c[nH]c2ccccc12)C(=O)N1CCC(c2ccccc2)CC1 [1-DTrp-4-phenylpiperdinamide, DTrp-4-phenylpiperdinamide] | 520

Kindly review the next compound as well.
Q: What value of measured Unstimulated GH release is listed for C=C(C)CON=C(c1ccccc1)c1ccccc1 [5-O-(2-methylallyl) benzophonone oxime, O-(2-methylallyl) benzophonone oxime] ?
A: 929
